Form field: pIC50 (one value per entry).
test system: MDA-MB-231; experiment: Cytotoxicity against human MDA-MB-231 cells assessed as reduction in cell viability incubated for 48 hrs by MTT assay; assay type: functional, cell-based; conditions: MDA-MB-231, 48 h
pIC50 is a log-scale quantity: -log10 of the concentration expressed in molar.

# example entries with known answers
> print(dat)
                                chem.smiles  value.measured
1  O=C(Cn1cc(CO[C@H]2CC(=O)[C@@H]3OC[C@H]2O3)nn1)c1ccccc1            4.59
2  O=C1C[C@H](OCc2cn(C3CCCCC3)nn2)[C@H]2CO[C@@H]1O2            4.61
3  O=C1C[C@H](OCc2cn(-c3ccc(Cl)cc3)nn2)[C@H]2CO[C@@H]1O2            4.58

q: Provide value of pIC50 for this record tested with MDA-MB-231: "COc1ccc(-c2cc(CO[C@H]3CC(=O)[C@@H]4OC[C@H]3O4)on2)cc1"
a: 4.66

Data origin, for the record: ChEMBL document CHEMBL4622906
